Assay: Photophysical properties and pKa of DAOTA dyes, fluorescence intensity at different pH, 6% DMSO in PBS buffer
Type: physicochemical
Conditions: second value of cell, deprotonated form
Measured εmax, molar absorption coefficient by item

[
  {
    "compound": "CN1c2cccc3c2C2c4c(cccc4N(c4cc(O)cc(C(F)(F)F)c4)c4cccc1c42)O3 (stereo not shown)",
    "measurement kind": "εmax, molar absorption coefficient",
    "result": "14300 M⁻¹ cm⁻¹"
  }
]

Name the reported εmax, molar absorption coefficient value associated with the compound CN1c2cccc3c2C2c4c(cccc4N(c4cc(C(F)(F)F)ccc4O)c4cccc1c42)O3 (stereo not shown)
16600/16600 M^−1cm^−1

Now the compound CN1c2cccc3c2C2c4c(cccc4N(c4cccc(O)c4)c4cccc1c42)O3 (stereo not shown)
13500 M⁻¹ cm⁻¹

Now the compound CN1c2cccc3c2C2c4c(cccc4N(c4ccc(O)cc4)c4cccc1c42)O3 (stereo not shown)
14100 M⁻¹ cm⁻¹
